# Tested on: SNB-19 CNS
# experimental details: NCI tumour cell line growth inhibition, 48 h
Listed here are compounds together with their documented TGI.
readout name: TGI (µM)

compound: O=c1[nH]c2c(O)cccc2c2cc3c(c(O)c12)OCO3
readout name: TGI
rel: =
observed value: 70.5
--
compound: FC(F)(F)C1(C(F)(F)F)C2CCC3(CC(F)(F)C(F)(F)S3)C1C2 (stereo not given)
readout name: TGI
rel: >
observed value: 100
--
compound: CCOC(=O)c1c(N2CCOCC2)[nH]c(=O)c(C(c2ccc(Cl)c([N+](=O)[O-])c2)c2c(O)c(C(=O)OCC)c(N3CCOCC3)[nH]c2=O)c1O
readout name: TGI
rel: =
observed value: 79.3
--
compound: CC[C@@]1(OC(=O)CN)C(=O)OCc2c1cc1n(c2=O)Cc2cc3c(N)c4c(cc3nc2-1)OCO4
readout name: TGI
rel: >
observed value: 100
--
compound: NCCc1ccc2c(c1)C(=O)c1c(O)ccc(O)c1C2=O
readout name: TGI
rel: =
observed value: 29.6
